The entries below are paired with their reported cytotoxicity at 70.5 h.
test-name: Human HepG2 cell viability assay in 384 well format
Format: toxicity, cell-based
Parameters: dose 125 nL, time 70.5 hour; concentration not given beside the values
particulars: HepG2 cells, read-out: Inhibition
assay-readout: cytotoxicity at 70.5 h (%)

{"compound": "Cc1nc(C)n(CC2CCCN(Cc3nc(-c4ccco4)no3)C2)n1 (centres undefined)", "assay-readout": "cytotoxicity at 70.5 h", "unit-name": "%", "data-value": -3.87}
{"compound": "Cc1ccoc1C(=O)N1CC[C@H]2OCC[C@@]2(COCc2ccncc2)C1", "assay-readout": "cytotoxicity at 70.5 h", "unit-name": "%", "data-value": -5.41}
{"compound": "CCn1cnnc1C1CCN(C(=O)c2ccccc2F)CC1", "assay-readout": "cytotoxicity at 70.5 h", "unit-name": "%", "data-value": -7.26}
{"compound": "CCN(CC)Cc1cn2c(n1)CN(C1CCOC1)CC2 (centres undefined)", "assay-readout": "cytotoxicity at 70.5 h", "unit-name": "%", "data-value": -4.42}
{"compound": "O=C(NCc1ccco1)[C@@]12CCO[C@@H]1CCN(Cc1ccccn1)C2", "assay-readout": "cytotoxicity at 70.5 h", "unit-name": "%", "data-value": -3.48}
{"compound": "CCOc1ccc(-c2nc(C(=O)NCC3CCOC3)cs2)cc1 (centres undefined)", "assay-readout": "cytotoxicity at 70.5 h", "unit-name": "%", "data-value": -7.97}
{"compound": "CC1CCN(c2ccc(NC(=O)CCn3cccn3)cc2)CC1", "assay-readout": "cytotoxicity at 70.5 h", "unit-name": "%", "data-value": -9.93}
{"compound": "O=C(C1CCOCC1)N1C[C@H]2CC[C@@H]1CN(C1Cc3ccccc3C1)C2", "assay-readout": "cytotoxicity at 70.5 h", "unit-name": "%", "data-value": -5.9}
{"compound": "Cc1cc(CN2CCN(C(=O)NC(C)Cn3ccnc3)CC2)no1 (centres undefined)", "assay-readout": "cytotoxicity at 70.5 h", "unit-name": "%", "data-value": -3.28}
{"compound": "CCS(=O)(=O)c1ccc(N2CCC(NC(=O)c3cnn(C)c3)CC2)cc1", "assay-readout": "cytotoxicity at 70.5 h", "unit-name": "%", "data-value": -4.33}
{"compound": "c1cc(-c2cn3nccc3nc2C2CCCCC2)nc(N2CCCC2)n1", "assay-readout": "cytotoxicity at 70.5 h", "unit-name": "%", "data-value": -7.05}
{"compound": "CC(Sc1nnnn1C1CCOCC1)C(F)(F)F (centres undefined)", "assay-readout": "cytotoxicity at 70.5 h", "unit-name": "%", "data-value": -7.71}
{"compound": "Cc1nc(N(C)C)nc(C)c1NS(=O)(=O)c1ccc(F)cc1F", "assay-readout": "cytotoxicity at 70.5 h", "unit-name": "%", "data-value": -2.45}
{"compound": "Cc1cc(C)c(S(N)(=O)=O)cc1C(=O)NCCN1CCCCC1", "assay-readout": "cytotoxicity at 70.5 h", "unit-name": "%", "data-value": -16.1}
{"compound": "c1ccc(C2(NCC3CNc4ccnn4C3)CCC2)cc1 (centres undefined)", "assay-readout": "cytotoxicity at 70.5 h", "unit-name": "%", "data-value": -2.65}
{"compound": "NC(=O)CSc1ccccc1NC(=O)C1CCCCC1", "assay-readout": "cytotoxicity at 70.5 h", "unit-name": "%", "data-value": 28.8}
{"compound": "Cc1nccn1Cc1nnc(C2CCCN(Cc3ccncc3)C2)n1C (centres undefined)", "assay-readout": "cytotoxicity at 70.5 h", "unit-name": "%", "data-value": -17.2}
{"compound": "CNC(=O)c1ccc(CN(C(C)C)C(C)C)o1", "assay-readout": "cytotoxicity at 70.5 h", "unit-name": "%", "data-value": -4.83}
{"compound": "COC(=O)CNC(=O)CCc1cc(Br)cs1", "assay-readout": "cytotoxicity at 70.5 h", "unit-name": "%", "data-value": -3.56}
{"compound": "CC(C)C(=O)Nc1cc(C(C)(C)C)nn1-c1ccccn1", "assay-readout": "cytotoxicity at 70.5 h", "unit-name": "%", "data-value": -3.18}
{"compound": "Cc1cc(C)n(CC2CCCN2C(=O)c2ccc3c(c2)OCCO3)n1 (centres undefined)", "assay-readout": "cytotoxicity at 70.5 h", "unit-name": "%", "data-value": -12.8}
{"compound": "O=C(COC1CCCC1)N1C[C@@H]2CN(Cc3ccoc3)CCO[C@@H]2C1", "assay-readout": "cytotoxicity at 70.5 h", "unit-name": "%", "data-value": -6.78}
{"compound": "CCN1CCN(C2CCN(Cc3c(C)noc3C)CC2)C1=O", "assay-readout": "cytotoxicity at 70.5 h", "unit-name": "%", "data-value": 25.5}
{"compound": "CCc1nc(CN2CCCN(CC(=O)N3CCOCC3)CC2)no1", "assay-readout": "cytotoxicity at 70.5 h", "unit-name": "%", "data-value": 41.7}
{"compound": "CCCc1ccc(OCCNCc2ccco2)c(OC)c1", "assay-readout": "cytotoxicity at 70.5 h", "unit-name": "%", "data-value": -1.62}
{"compound": "CC1CCN(C(=O)c2cnc(CC3CCCN(C)C3)cn2)CC1 (centres undefined)", "assay-readout": "cytotoxicity at 70.5 h", "unit-name": "%", "data-value": -9.3}
{"compound": "CN(C)c1cc(C(=O)NCc2cccnc2-n2cncn2)ccn1", "assay-readout": "cytotoxicity at 70.5 h", "unit-name": "%", "data-value": -16.1}
{"compound": "COc1cccc(S(=O)(=O)N2CCCc3c(OC)nn(C)c3C2)c1", "assay-readout": "cytotoxicity at 70.5 h", "unit-name": "%", "data-value": -5.16}
{"compound": "Cc1n[nH]c(C2CN(C(=O)Cn3ccccc3=O)CCO2)n1 (centres undefined)", "assay-readout": "cytotoxicity at 70.5 h", "unit-name": "%", "data-value": 7.95}
{"compound": "CC(=O)N(C)Cc1ccccc1NC(=O)c1cnn(C)c1C", "assay-readout": "cytotoxicity at 70.5 h", "unit-name": "%", "data-value": -0.121}
{"compound": "CCC1c2ccsc2CCN1C(=O)NCc1cccnc1N(C)C (centres undefined)", "assay-readout": "cytotoxicity at 70.5 h", "unit-name": "%", "data-value": 13}
{"compound": "CCCNC(=O)CN1CCC(NCc2c(C)nn(C)c2OC)CC1", "assay-readout": "cytotoxicity at 70.5 h", "unit-name": "%", "data-value": -0.725}
{"compound": "CCOc1ccc(OCC(O)CN2CCN(S(C)(=O)=O)CC2)cc1 (centres undefined)", "assay-readout": "cytotoxicity at 70.5 h", "unit-name": "%", "data-value": 0.695}
{"compound": "O=c1[nH]c(NC2CCCC2)nc2nccc(-c3ccsc3)c12", "assay-readout": "cytotoxicity at 70.5 h", "unit-name": "%", "data-value": -4.5}
